Please provide measured RAM network inhibition for the entries that follow.
# experimentSummary: RAM signaling pathway blockade in yeast – S. cerevisiae, Pdr1DBD-CYC8 efflux-inhibited sensitized strain, primary screen (AID 1298);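 note: 0% = DMSO untreated cells without growth and 100% = 10 µM 1-NA-PP1 full growth; higher means more yeast growth rescued from 5-FOA killing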
# protocolConditions: S. cerevisiae cbk1-as DSE1-URA3 strain, 5-FOA growth OD615, 2 d; at 50 µM; stronger effect = higher value
Report the figure in % without appending any unit label.

Dear colleague, I am looking for the recorded RAM network inhibition of the following compound: Cc1sc2nc(SC(C)C)nc(N)c2c1C 4.8

Dear colleague, I am looking for the recorded RAM network inhibition of the following compound: CC(=O)NCCc1cc2ccc(C)c(C)c2[nH]c1=O 0.37

Dear colleague, I am looking for the recorded RAM network inhibition of the following compound: COc1ccc(C2C(C(=O)Nc3ccccn3)=C(C)Nc3ncnn32)c(OC)c1 (stereo unspecified) 7.85

Dear colleague, I am looking for the recorded RAM network inhibition of the following compound: O=C(c1ccco1)c1cn[nH]c1-c1ccc(Cl)cc1O 0.57

Dear colleague, I am looking for the recorded RAM network inhibition of the following compound: CCCn1c(CNc2ccc(Br)cc2)nc2ccccc21 1.62

Dear colleague, I am looking for the recorded RAM network inhibition of the following compound: N=c1sccn1CC(=O)Nc1ccccc1-c1ccccc1 3.6

====

# experimentSummary: growth suppression of PTEN-deleted HCT116, pilot screen, cell-based, HCT116 clonal line, CellTiter-Glo (AID 824);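 note: 0% = 20 µM Hyamine control and 100% = vehicle cell control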
# protocolConditions: 60 h, at 10 µM, stronger effect = lower value
Inconclusive results are not listed. The source made the active and inactive calls.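 Rule for the calls: active = viability at or below 27.92% in each of two runs, the all-compound median minus 4 SD; inconclusive = no clear call, values can overlap the other calls; inactive = the rest.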
Please provide measured viability for the entries that follow.

Dear colleague, I am looking for the recorded viability of the following molecule: Cc1ccc(S(=O)(=O)Nc2ccc3nc(N)sc3c2)cc1 85.5% (inactive)

Dear colleague, I am looking for the recorded viability of the following molecule: CCCOc1nc2c(c(=O)n(C)c(=O)n2C)n1CCC 86.6% (inactive)

Dear colleague, I am looking for the recorded viability of the following molecule: COc1ccc(NC(=O)C(CC(=O)O)Cc2ccccc2)cc1 (configuration not stated) 97.9% (inactive)

Dear colleague, I am looking for the recorded viability of the following molecule: CCN(CC)S(=O)(=O)c1ccc(Cl)c(C(=O)NC2CCCC2)c1 97.1% (inactive)

Dear colleague, I am looking for the recorded viability of the following molecule: O=C(CC1Oc2ccccc2NC1=O)NC1CCCC1 (configuration not stated) 102% (inactive)

Dear colleague, I am looking for the recorded viability of the following molecule: O=C(OCCCCN1C(=O)c2ccccc2C1=O)c1ccc(S(=O)(=O)N2CCCC2)cc1 100% (inactive)

Dear colleague, I am looking for the recorded viability of the following molecule: CC(C)NC(=O)C1CCCN(c2nnc(-n3cccc3)s2)C1 (configuration not stated) 97.6% (inactive)

Dear colleague, I am looking for the recorded viability of the following molecule: Cc1cccc(CCNC(=O)CN(C)S(=O)(=O)c2ccc3c(c2)c(=O)n(C)c(=O)n3C)c1 90.4% (inactive)

Dear colleague, I am looking for the recorded viability of the following molecule: CN1CCc2c(c3ccccc3n2Cc2ccccc2)C1 63.9% (inactive)

Dear colleague, I am looking for the recorded viability of the following molecule: O=C(NC1=NCCS1)c1csc2ccccc12 79% (inactive)

Dear colleague, I am looking for the recorded viability of the following molecule: CN(C)S(=O)(=O)c1ccc(C(=O)Nc2ccc(OCC(=O)N3CCOCC3)cc2)cc1 97.9% (inactive)

Dear colleague, I am looking for the recorded viability of the following molecule: CCOCCn1c(N(C)Cc2ccccc2)nc2c1c(=O)[nH]c(=O)n2C 95.6% (inactive)

Dear colleague, I am looking for the recorded viability of the following molecule: O=S(=O)(Cc1ccccc1)N1CCn2c(nc3ccccc32)C1 97.5% (inactive)

Dear colleague, I am looking for the recorded viability of the following molecule: O=C(Cn1c(=O)oc2cc(S(=O)(=O)N3CCc4ccccc43)ccc21)NC1CCCC1 73.9% (inactive)

Dear colleague, I am looking for the recorded viability of the following molecule: O=C(NCCN1C(=O)C2C3C=CC(C3)C2C1=O)NCc1ccccc1 (configuration not stated) 99.8% (inactive)

Dear colleague, I am looking for the recorded viability of the following molecule: O=C(c1ccc(NC2=NC3CS(=O)(=O)CC3S2)cc1)N1CCN(C(=O)c2ccco2)CC1 (configuration not stated) 98.3% (inactive)

Dear colleague, I am looking for the recorded viability of the following molecule: CSC1=NCCN1C(=O)Cc1ccc(Cl)cc1 96.7% (inactive)

Dear colleague, I am looking for the recorded viability of the following molecule: O=C(c1ccc(CNc2c(N3CCOCC3)c(=O)c2=O)cc1)N1CC=C(c2ccccc2)CC1 94.8% (inactive)

Dear colleague, I am looking for the recorded viability of the following molecule: CCOc1ccc(C2c3c(oc4ccccc4c3=O)C(=O)N2CCCN2CCOCC2)cc1OCC (configuration not stated) 88.6% (inactive)

Dear colleague, I am looking for the recorded viability of the following molecule: CCN(CC)S(=O)(=O)c1ccc(C(=O)Nc2ccc(OCC(=O)N3CCOCC3)cc2)cc1 95.4% (inactive)

Dear colleague, I am looking for the recorded viability of the following molecule: c1ccc(-c2nnn(C34CC5CC(CC(C5)C3)C4)n2)cc1 84.9% (inactive)

Dear colleague, I am looking for the recorded viability of the following molecule: Cn1c(=O)c2c(nc(CN3CCOCC3)n2CCc2ccccc2)n(C)c1=O 94.7% (inactive)

====

# experimentSummary: Restrictive medium S. cerevisiae growth inhibition, OD615, pilot screen of yeast lifespan reduction project, restrictive growth control (AID 706);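 note: modified DeaD lifespan yeast strain shifted to restrictive glucose medium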
# protocolConditions: OD615, 48 h, at 10 µM, stronger effect = higher value
quantityMeasured: growth inhibition (%)
Report the figure in % without appending any unit label.

Dear colleague, I am looking for the recorded growth inhibition of the following compound: COCCn1c(SCC(=O)NCC2CCCO2)nc2c(c1=O)SC(C)C2 (stereo not drawn) -0.265

Dear colleague, I am looking for the recorded growth inhibition of the following compound: CC(=O)NCC(=O)OCC(=O)c1ccc(C)c(C)c1 -2.07

Dear colleague, I am looking for the recorded growth inhibition of the following compound: Nc1c(C(=O)CCC(=O)O)oc2ccc(Cl)cc12 -0.24

Dear colleague, I am looking for the recorded growth inhibition of the following compound: CNc1nc(SCC(=O)OC)nc(N2CCOCC2)n1 -14.8

Dear colleague, I am looking for the recorded growth inhibition of the following compound: COC(=O)c1cc(Nc2cc(C)nc3ncnn23)cc(C(=O)OC)c1 11

Dear colleague, I am looking for the recorded growth inhibition of the following compound: O=C(C1CCN(S(=O)(=O)c2cccc3cccnc23)CC1)N1CCN(Cc2ccccc2)CC1 5.8

Dear colleague, I am looking for the recorded growth inhibition of the following compound: O=C(Cn1nc(-c2ccccc2)ccc1=O)Nc1ccc(N2CCN(C(=O)c3ccccc3)CC2)cc1 -24.7

Dear colleague, I am looking for the recorded growth inhibition of the following compound: O=C(c1ccc(S(=O)(=O)N2CCCC2)cc1)N1CCCc2ccccc21 -13.7

Dear colleague, I am looking for the recorded growth inhibition of the following compound: COCCN1C(=O)c2ccccc2C(C(=O)N2CCN(c3ccccn3)CC2)C1c1ccc(F)cc1 (stereo not drawn) -22.7

Dear colleague, I am looking for the recorded growth inhibition of the following compound: CCCC(=O)N1CCN(C2=NS(=O)(=O)c3ccccc32)CC1 12.9

Dear colleague, I am looking for the recorded growth inhibition of the following compound: Cc1ccc2oc(=O)c3cc(C(=O)N4CCN(c5ncccn5)CC4)sc3c2c1 -1.9

Dear colleague, I am looking for the recorded growth inhibition of the following compound: CN(C)c1nc2c(c(=O)[nH]c(=O)n2C)n1Cc1ccc(F)cc1 6.59

Dear colleague, I am looking for the recorded growth inhibition of the following compound: CC(=O)Oc1c(Cl)c(N2CCOCC2)c(OC(C)=O)c2ccccc12 -7.78

Dear colleague, I am looking for the recorded growth inhibition of the following compound: CC1CN(C2CC(C)(C)NC(C)(C)C2)CCC1=O (stereo not drawn) -0.43

Dear colleague, I am looking for the recorded growth inhibition of the following compound: CCOC(=O)N1CCC(NC(=O)CN2C(=O)CSc3nc(C)cc(C)c32)CC1 6.29

Dear colleague, I am looking for the recorded growth inhibition of the following compound: c1ccc(-c2ccc(-c3nc(-c4cccnc4)no3)cc2)cc1 20

Dear colleague, I am looking for the recorded growth inhibition of the following compound: c1ccc2c(c1)ncc1cccn12 -12.8

Dear colleague, I am looking for the recorded growth inhibition of the following compound: CCn1cc(C2=NC(c3ccccc3)CO2)c2ccccc21 (stereo not drawn) -8.14

Dear colleague, I am looking for the recorded growth inhibition of the following compound: COc1ccc(CC(NC(=O)c2ccccc2)C(=O)NCC(=O)O)cc1 (stereo not drawn) -2.91

Dear colleague, I am looking for the recorded growth inhibition of the following compound: CCCOc1ccc2ccccc2c1/C=N/n1c(C)nnc1-n1nc(C)cc1C 1.04

Dear colleague, I am looking for the recorded growth inhibition of the following compound: O=C(c1ccccc1F)N1CCN(S(=O)(=O)c2ccc3c(c2)OCCO3)CC1 3.28

Dear colleague, I am looking for the recorded growth inhibition of the following compound: Cc1cccn2cc(-c3ccc(F)cc3)nc12 15.1

Dear colleague, I am looking for the recorded growth inhibition of the following compound: CN(C)S(=O)(=O)c1ccc(-c2ccccc2)cc1 -4.33
